# Tested on: rodent lifetime carcinogenesis bioassay, tumor incidence TD50
# procedure_summary: carcinogenic potency in animals, long-term in vivo studies, CPDB compilation (AID 1745844)
# test_settings: mouse; strain B6C3F1; females; by gavage; site: lung; lesion: alveolar/bronchiolar adenoma; dosed 103 weeks; study length 106 weeks
measured_metric: TD50

Provide rodent lifetime carcinogenesis bioassay, tumor incidence TD50 TD50 reading for CC(CCl)OC(C)CCl (stereo unspecified) .
381 mg/kg/day

###

# System: rodent lifetime carcinogenesis bioassay, tumor incidence TD50
# procedure_summary: carcinogenic potency in animals, long-term in vivo studies, CPDB compilation (AID 1745844)
# test_settings: rat; strain Fischer 344; males; in drinking water; site: liver; lesion: hepatocellular carcinoma + neoplastic nodule; dosed 97 weeks; study length 97 weeks
measured_metric: TD50

Determine its reported TD50: COc1cc(-c2ccc(N=Nc3c(S(=O)(=O)O)cc4cc(S(=O)(=O)O)cc(N)c4c3O)c(OC)c2)ccc1N=Nc1c(S(=O)(=O)O)cc2cc(S(=O)(=O)O)cc(N)c2c1O
55.2 mg/kg/day
